Molecular target: wt human LRRK2, catalytic site (Homo sapiens (Human), UniProt Q5S007)
Sequence (Q5S007 1879-2138): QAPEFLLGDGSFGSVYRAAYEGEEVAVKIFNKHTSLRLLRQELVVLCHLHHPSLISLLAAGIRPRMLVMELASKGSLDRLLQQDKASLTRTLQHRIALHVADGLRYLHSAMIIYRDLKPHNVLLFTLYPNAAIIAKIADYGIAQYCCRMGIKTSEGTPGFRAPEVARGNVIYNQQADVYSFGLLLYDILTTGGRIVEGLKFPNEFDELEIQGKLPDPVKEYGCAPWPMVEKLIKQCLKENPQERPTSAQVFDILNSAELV
Test: TR-FRET LanthaScreen Tb Kinase Activity Assay (LRRK2 kinase inhibition)
Conditions: 2 nM wt human LRRK2, 400 nM fluorescein-ERM (LRRKtide) peptide, 38 μM ATP, 120 minutes at room temperature
pIC50: −log10 of the molar value.

{"MOLECULE": "CNc1nc(Nc2c(F)ccc3c2cnn3C)ncc1C(F)(F)F [Example 38]", "pIC50": "6.70 to 7.30"}
{"MOLECULE": "CNc1nc(Nc2cc(C(F)(F)F)cc3c2cnn3CC#N)ncc1C(F)(F)F [Example 90]", "pIC50": "> 7.30"}
{"MOLECULE": "FCCNc1nc(Nc2cccc3c2cnn3CC(F)F)ncc1C(F)(F)F [Example 142]", "pIC50": "> 7.30"}
{"MOLECULE": "CNc1nc(Nc2ccc3cnn(CC#N)c3c2)ncc1C(F)(F)F [Example 16]", "pIC50": "> 7.30"}
{"MOLECULE": "CNc1nc(Nc2cc3[nH]ncc3cc2C(F)(F)F)ncc1C(F)(F)F [Example 123]", "pIC50": "≤ 6.70"}
{"MOLECULE": "CC(C)(O)Cn1ncc2c(Nc3ncc(C(F)(F)F)c(NC4CC4)n3)ccc(F)c21 [Example 172]", "pIC50": "> 7.30"}
